# system: Histone deacetylase 4 (Homo sapiens)
# Sequence (P56524 whole entry, the tested form may be a part): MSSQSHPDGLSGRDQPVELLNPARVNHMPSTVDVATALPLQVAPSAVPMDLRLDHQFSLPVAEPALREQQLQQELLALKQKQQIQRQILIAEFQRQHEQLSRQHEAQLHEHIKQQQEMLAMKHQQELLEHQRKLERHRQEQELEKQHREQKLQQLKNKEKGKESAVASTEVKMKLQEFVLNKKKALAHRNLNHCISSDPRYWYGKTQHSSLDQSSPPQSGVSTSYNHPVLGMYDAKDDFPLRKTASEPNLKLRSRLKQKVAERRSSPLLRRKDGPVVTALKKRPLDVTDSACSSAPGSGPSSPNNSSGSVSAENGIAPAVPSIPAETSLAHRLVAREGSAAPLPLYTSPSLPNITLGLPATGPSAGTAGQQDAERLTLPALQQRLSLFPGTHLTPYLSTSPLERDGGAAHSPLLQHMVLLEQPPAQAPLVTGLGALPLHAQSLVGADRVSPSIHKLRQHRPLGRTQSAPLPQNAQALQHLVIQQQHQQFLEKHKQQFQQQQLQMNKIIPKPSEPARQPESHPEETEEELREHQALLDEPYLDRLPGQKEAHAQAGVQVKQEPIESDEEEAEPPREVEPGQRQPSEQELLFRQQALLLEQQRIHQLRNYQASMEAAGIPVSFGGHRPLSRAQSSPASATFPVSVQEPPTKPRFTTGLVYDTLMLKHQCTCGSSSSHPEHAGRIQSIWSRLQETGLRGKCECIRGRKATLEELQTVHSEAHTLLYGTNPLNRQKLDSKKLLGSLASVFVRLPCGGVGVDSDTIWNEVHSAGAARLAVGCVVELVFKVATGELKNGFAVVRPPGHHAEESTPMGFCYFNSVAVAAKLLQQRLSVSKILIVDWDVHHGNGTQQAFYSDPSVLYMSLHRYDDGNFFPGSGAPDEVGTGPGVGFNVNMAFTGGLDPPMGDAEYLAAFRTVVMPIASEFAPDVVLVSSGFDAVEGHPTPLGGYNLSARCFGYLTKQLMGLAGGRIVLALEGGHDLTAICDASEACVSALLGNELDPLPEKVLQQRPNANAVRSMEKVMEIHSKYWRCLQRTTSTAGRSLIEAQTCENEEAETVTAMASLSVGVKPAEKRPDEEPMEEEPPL
# assay_procedure: Inhibition of recombinant human N-terminal GST-tagged/C-terminal His-tagged HDAC4 (627 to 1084 residues) expressed in baculovirus expression system using Boc-Lys(trifluoroacetyl)-AMC as substrate preincubated for 1 hr followed by substrate addition measured after 2 hrs by fluorescence assay
recorded_metric: IC50

INPUT: IC50 lookup needed for CCCNNC(=O)c1ccc(NC(=O)[C@H](Cc2c[nH]c3ccccc23)NC(=O)c2ccc(OC)cc2)cc1 , thanks.
OUTPUT: > 50 µM

---

Exercise: for every item that follows, state its recorded pIC50.
# system: Histone deacetylase 2 (Homo sapiens)
# assay_procedure: Inhibition of full length recombinant human C-terminal FLAG/His-tagged HDAC2 expressed in baculovirus expression system using Boc-Lys(acetyl)-AMC as substrate preincubated for 60 mins followed by substrate addition measured after 2 hrs by fluorescence assay
pIC50 (log units): -log10 of the concentration in mol/L.

INPUT: pIC50 lookup needed for CCCNNC(=O)c1ccc(CNC(=O)[C@H](Cc2c[nH]c3ccccc23)NC(=O)c2ccc(OC)cc2)cc1 , thanks.
OUTPUT: 6.59

INPUT: pIC50 lookup needed for COc1ccc(C(=O)N[C@@H](Cc2c[nH]c3ccccc23)C(=O)NCc2ccc(C(=O)Nc3ccccc3N)cc2)cc1 , thanks.
OUTPUT: 6.77

---

# system: Histone deacetylase 3/Nuclear receptor corepressor 2 (HDAC3/NCoR2) (Homo sapiens, UniProt O15379)
# Sequence (O15379 whole entry): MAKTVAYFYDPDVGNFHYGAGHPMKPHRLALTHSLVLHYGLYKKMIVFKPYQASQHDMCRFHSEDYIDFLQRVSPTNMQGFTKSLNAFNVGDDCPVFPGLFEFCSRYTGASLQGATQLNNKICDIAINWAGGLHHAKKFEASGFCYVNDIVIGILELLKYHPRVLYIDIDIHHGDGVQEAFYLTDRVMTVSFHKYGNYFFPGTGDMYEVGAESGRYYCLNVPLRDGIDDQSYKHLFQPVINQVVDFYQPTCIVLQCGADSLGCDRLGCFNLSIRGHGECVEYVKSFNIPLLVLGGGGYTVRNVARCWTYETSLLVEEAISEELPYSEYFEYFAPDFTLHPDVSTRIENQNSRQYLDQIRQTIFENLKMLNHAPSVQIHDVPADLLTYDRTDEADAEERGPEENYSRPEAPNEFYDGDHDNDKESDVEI
# Sequence (Q9Y618 whole entry, further chain): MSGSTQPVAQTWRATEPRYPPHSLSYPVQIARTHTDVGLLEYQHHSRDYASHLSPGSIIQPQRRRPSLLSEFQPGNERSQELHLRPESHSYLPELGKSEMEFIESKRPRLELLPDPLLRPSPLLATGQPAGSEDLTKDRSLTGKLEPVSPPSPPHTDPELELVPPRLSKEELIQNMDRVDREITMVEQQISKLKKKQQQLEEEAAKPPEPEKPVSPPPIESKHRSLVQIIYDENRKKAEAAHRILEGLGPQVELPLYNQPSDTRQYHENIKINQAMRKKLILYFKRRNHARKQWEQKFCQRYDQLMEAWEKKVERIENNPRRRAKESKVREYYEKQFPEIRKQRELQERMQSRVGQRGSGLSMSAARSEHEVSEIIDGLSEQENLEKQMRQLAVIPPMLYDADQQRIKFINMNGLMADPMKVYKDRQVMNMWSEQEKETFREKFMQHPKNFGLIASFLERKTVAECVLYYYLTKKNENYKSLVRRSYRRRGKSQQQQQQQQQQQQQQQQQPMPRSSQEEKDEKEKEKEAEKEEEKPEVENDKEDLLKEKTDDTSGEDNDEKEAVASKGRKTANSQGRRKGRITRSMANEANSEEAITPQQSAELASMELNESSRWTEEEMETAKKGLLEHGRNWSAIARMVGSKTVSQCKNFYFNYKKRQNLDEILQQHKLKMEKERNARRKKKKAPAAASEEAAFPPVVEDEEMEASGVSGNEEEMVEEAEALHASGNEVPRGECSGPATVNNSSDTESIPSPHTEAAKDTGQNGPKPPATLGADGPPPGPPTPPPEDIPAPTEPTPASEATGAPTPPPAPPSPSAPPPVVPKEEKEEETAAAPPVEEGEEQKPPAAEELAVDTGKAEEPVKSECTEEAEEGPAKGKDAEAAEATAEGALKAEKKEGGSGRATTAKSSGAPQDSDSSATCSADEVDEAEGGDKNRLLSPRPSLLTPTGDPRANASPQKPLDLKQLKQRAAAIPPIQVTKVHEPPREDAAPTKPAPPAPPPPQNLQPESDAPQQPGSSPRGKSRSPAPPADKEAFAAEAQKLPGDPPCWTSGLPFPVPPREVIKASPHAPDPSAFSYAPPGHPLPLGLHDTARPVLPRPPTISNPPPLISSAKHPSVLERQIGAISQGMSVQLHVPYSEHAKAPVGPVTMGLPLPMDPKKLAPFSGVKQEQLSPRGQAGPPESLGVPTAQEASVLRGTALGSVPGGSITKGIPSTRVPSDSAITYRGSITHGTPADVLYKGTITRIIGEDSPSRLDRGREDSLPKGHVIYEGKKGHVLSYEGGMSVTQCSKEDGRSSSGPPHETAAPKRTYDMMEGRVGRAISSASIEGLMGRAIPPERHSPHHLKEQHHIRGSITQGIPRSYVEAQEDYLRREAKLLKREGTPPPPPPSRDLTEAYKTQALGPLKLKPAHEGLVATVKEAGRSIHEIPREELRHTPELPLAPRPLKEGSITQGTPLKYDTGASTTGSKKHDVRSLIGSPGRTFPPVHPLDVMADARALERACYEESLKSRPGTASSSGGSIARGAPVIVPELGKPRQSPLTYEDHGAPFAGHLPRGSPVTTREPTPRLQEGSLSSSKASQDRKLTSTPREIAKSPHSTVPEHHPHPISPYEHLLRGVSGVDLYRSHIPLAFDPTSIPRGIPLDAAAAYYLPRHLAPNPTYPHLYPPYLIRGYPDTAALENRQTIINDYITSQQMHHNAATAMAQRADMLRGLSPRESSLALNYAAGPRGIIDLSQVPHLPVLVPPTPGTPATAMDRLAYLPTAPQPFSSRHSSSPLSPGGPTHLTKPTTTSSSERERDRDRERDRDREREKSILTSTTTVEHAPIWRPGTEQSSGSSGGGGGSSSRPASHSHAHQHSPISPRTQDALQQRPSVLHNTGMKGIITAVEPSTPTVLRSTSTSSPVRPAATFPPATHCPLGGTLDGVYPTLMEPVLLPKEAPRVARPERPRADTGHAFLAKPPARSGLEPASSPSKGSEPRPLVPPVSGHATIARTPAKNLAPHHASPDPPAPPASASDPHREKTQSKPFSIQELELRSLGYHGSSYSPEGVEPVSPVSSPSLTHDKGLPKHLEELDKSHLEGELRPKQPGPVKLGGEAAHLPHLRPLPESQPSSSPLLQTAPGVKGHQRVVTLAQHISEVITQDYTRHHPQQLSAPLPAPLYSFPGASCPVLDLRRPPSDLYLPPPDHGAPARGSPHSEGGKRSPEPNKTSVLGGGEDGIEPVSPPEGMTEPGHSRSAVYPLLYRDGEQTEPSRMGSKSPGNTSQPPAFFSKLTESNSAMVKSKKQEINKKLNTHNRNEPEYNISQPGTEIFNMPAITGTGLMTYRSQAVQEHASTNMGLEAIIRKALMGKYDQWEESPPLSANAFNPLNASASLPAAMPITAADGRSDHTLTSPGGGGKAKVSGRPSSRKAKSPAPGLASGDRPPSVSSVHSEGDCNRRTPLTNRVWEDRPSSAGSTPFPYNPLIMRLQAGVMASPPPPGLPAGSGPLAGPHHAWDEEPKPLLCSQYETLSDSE
# assay_procedure: Inhibition of full length recombinant human C-terminal His-tagged HDAC3/N-terminal GST-tagged NCOR2 co-expressed in baculovirus expression system using Boc-Lys(acetyl)-AMC as substrate preincubated for 90 mins followed by substrate addition measured after 2 hrs by fluorescence assay
recorded_metric: pIC50
pIC50 (log units): -log10 of the concentration in mol/L.

INPUT: pIC50 lookup needed for COc1ccc(C(=O)N[C@@H](Cc2c[nH]c3ccccc23)C(=O)NCc2ccc(C(=O)Nc3ccccc3N)cc2)cc1 , thanks.
OUTPUT: 6.87

---

# system: UniProt:Q8WUI4
# Sequence (Q8WUI4 whole entry): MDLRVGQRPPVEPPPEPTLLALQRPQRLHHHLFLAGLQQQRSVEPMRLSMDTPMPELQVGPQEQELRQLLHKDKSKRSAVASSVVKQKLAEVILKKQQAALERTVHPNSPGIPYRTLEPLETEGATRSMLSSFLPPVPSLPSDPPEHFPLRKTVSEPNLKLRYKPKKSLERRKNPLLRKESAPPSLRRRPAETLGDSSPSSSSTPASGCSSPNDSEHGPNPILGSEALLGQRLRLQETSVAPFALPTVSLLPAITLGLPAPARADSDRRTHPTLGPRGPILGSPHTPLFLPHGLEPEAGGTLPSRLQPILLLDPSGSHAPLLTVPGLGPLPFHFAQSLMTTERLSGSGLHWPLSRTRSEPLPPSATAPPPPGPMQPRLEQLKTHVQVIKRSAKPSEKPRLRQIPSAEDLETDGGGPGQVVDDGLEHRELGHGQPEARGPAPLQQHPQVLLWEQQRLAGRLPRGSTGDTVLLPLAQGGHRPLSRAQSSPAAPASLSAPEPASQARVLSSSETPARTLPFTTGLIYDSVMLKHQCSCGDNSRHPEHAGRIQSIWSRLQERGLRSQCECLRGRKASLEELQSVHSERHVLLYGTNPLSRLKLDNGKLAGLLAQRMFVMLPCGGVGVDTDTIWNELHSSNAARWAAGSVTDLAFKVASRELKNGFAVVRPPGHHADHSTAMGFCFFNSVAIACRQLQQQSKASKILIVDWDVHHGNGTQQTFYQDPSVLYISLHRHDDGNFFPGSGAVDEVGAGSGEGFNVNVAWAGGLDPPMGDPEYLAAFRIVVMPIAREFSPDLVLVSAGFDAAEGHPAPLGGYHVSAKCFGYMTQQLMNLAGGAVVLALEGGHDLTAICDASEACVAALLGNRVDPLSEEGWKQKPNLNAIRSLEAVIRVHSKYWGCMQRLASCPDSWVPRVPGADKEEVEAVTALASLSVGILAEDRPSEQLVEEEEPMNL
# assay_procedure: Inhibition of recombinant human N-terminal GST-tagged HDAC7 (518-end residues) expressed in baculovirus expression system using Boc-Lys(trifluoroacetyl)-AMC as substrate preincubated for 1 hr followed by substrate addition measured after 2 hrs by fluorescence assay
recorded_metric: IC50

INPUT: IC50 lookup needed for CCCNNC(=O)c1ccc(NC(=O)[C@H](Cc2c[nH]c3ccccc23)NC(=O)c2ccc(OC)cc2)cc1 , thanks.
OUTPUT: > 50 µM

---

Exercise: for every item that follows, state its recorded IC50.
# system: Histone deacetylase 2 (Homo sapiens, UniProt Q92769)
# assay_procedure: Inhibition of full length recombinant human C-terminal FLAG/His-tagged HDAC2 expressed in baculovirus expression system using Boc-Lys(acetyl)-AMC as substrate preincubated for 15 mins followed by substrate addition measured after 2 hrs by fluorescence assay
// note: answer is a bare numeric in nM

INPUT: Test system Histone deacetylase 2 (Homo sapiens, UniProt Q92769); read-out IC50; what value for COc1ccc(C(=O)N[C@@H](Cc2c[nH]c3ccccc23)C(=O)NCc2ccc(C(=O)Nc3ccccc3N)cc2)cc1 ?
OUTPUT: 348

INPUT: Test system Histone deacetylase 2 (Homo sapiens, UniProt Q92769); read-out IC50; what value for CCCNNC(=O)c1ccc(CNC(=O)[C@H](Cc2c[nH]c3ccccc23)NC(=O)c2ccc(OC)cc2)cc1 ?
OUTPUT: 424

---

# system: Histone deacetylase 2 (Homo sapiens)
# assay_procedure: Inhibition of full length recombinant human C-terminal FLAG/His-tagged HDAC2 expressed in baculovirus expression system using Boc-Lys(acetyl)-AMC as substrate preincubated for 1 hr followed by substrate addition measured after 2 hrs by fluorescence assay
Exam item: assign Yes to entries whose IC50 is below 200 nM and No to entries at or above 200 nM. Note that a value of exactly 200 nM receives No.

INPUT: Field: below-cutoff. Rule: recorded IC50 strictly less than 200 nM. Subject: CCCCNNC(=O)c1ccc(CNC(=O)[C@H](Cc2c[nH]c3ccccc23)NC(=O)c2ccc(OC)cc2)cc1
OUTPUT: Yes

INPUT: Field: below-cutoff. Rule: recorded IC50 strictly less than 200 nM. Subject: COc1ccc(C(=O)N[C@@H](Cc2c[nH]c3ccccc23)C(=O)NCc2ccc(C(=O)NNC3CCCC3)cc2)cc1
OUTPUT: No

INPUT: Field: below-cutoff. Rule: recorded IC50 strictly less than 200 nM. Subject: CCNNC(=O)c1ccc(CNC(=O)[C@H](Cc2c[nH]c3ccccc23)NC(=O)c2ccc(OC)cc2)cc1
OUTPUT: Yes

INPUT: Field: below-cutoff. Rule: recorded IC50 strictly less than 200 nM. Subject: CCCNNC(=O)CCCCCCNC(=O)[C@H](Cc1c[nH]c2ccccc12)NC(=O)c1ccc(OC)cc1
OUTPUT: Yes

INPUT: Field: below-cutoff. Rule: recorded IC50 strictly less than 200 nM. Subject: CCCCCNNC(=O)c1ccc(CNC(=O)[C@H](Cc2c[nH]c3ccccc23)NC(=O)c2ccc(OC)cc2)cc1
OUTPUT: No

INPUT: Field: below-cutoff. Rule: recorded IC50 strictly less than 200 nM. Subject: COc1ccc(C(=O)N[C@@H](Cc2c[nH]c3ccccc23)C(=O)NCc2ccc(C(=O)NNc3ccccc3)cc2)cc1
OUTPUT: No

INPUT: Field: below-cutoff. Rule: recorded IC50 strictly less than 200 nM. Subject: CCCNNC(=O)c1ccc(NC(=O)[C@H](Cc2c[nH]c3ccccc23)NC(=O)c2ccc(OC)cc2)cc1
OUTPUT: Yes

---

# system: Histone deacetylase 9 (Homo sapiens, UniProt Q9UKV0)
# Sequence (Q9UKV0 whole entry, the tested form may be a part): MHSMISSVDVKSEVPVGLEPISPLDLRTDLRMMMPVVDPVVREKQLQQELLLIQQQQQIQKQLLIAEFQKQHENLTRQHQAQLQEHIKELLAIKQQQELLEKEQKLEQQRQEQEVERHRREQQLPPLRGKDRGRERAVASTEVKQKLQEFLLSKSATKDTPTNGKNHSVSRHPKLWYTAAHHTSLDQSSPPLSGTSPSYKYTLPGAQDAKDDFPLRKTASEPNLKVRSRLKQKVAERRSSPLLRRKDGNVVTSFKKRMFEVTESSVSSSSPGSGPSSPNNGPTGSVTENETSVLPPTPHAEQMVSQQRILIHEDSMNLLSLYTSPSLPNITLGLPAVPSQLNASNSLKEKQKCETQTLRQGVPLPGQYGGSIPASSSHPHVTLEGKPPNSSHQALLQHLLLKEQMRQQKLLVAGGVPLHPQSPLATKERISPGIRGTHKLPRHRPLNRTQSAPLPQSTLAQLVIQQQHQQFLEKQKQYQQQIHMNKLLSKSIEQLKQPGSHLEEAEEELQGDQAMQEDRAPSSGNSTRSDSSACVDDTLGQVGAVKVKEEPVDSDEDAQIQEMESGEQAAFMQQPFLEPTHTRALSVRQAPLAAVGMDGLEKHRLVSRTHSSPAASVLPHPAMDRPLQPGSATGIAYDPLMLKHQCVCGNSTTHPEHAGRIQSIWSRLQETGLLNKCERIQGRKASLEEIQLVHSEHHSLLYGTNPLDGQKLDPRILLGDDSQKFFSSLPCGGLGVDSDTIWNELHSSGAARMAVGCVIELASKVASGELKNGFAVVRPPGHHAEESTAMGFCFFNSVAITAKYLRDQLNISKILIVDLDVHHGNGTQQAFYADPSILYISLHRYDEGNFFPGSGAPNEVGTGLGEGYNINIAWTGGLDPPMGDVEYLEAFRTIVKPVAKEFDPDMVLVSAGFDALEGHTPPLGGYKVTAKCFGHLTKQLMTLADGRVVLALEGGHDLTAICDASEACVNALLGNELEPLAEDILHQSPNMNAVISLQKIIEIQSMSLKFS
# assay_procedure: Inhibition of recombinant human C-terminal His-tagged HDAC9 (604 to 1066 residues) expressed in baculovirus expression system using Boc-Lys(trifluoroacetyl)-AMC as substrate preincubated for 1 hr followed by substrate addition measured after 2 hrs by fluorescence assay
pIC50: −log10 of the molar value.
recorded_metric: pIC50

INPUT: pIC50 lookup needed for CCCNNC(=O)c1ccc(NC(=O)[C@H](Cc2c[nH]c3ccccc23)NC(=O)c2ccc(OC)cc2)cc1 , thanks.
OUTPUT: < 4.30

---

# system: Histone deacetylase 3/Nuclear receptor corepressor 2 (HDAC3/NCoR2) (Homo sapiens, UniProt O15379)
# assay_procedure: Inhibition of full length recombinant human C-terminal His-tagged HDAC3/N-terminal GST-tagged NCOR2 co-expressed in baculovirus expression system using Boc-Lys(acetyl)-AMC as substrate preincubated for 30 mins followed by substrate addition measured after 2 hrs by fluorescence assay
recorded_metric: pIC50
pIC50 (log units): -log10 of the concentration in mol/L.

INPUT: pIC50 lookup needed for COc1ccc(C(=O)N[C@@H](Cc2c[nH]c3ccccc23)C(=O)NCc2ccc(C(=O)Nc3ccccc3N)cc2)cc1 , thanks.
OUTPUT: 6.36

---

# system: Histone deacetylase 8 (Homo sapiens)
# Sequence (Q9BY41 whole entry): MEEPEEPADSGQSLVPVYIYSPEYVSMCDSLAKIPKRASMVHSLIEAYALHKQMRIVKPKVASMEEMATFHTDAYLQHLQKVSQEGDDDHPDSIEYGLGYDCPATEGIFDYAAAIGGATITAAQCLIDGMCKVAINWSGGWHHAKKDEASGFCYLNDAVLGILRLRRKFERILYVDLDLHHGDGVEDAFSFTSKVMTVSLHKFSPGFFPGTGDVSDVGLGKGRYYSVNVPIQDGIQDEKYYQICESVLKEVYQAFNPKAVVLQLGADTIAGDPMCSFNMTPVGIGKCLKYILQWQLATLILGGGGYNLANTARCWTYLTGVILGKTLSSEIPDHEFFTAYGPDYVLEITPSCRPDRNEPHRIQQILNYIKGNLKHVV
# assay_procedure: Inhibition of full length recombinant human C-terminal His-tagged HDAC8 expressed in baculovirus expression system using Boc-Lys(trifluoroacetyl)-AMC as substrate preincubated for 1 hr followed by substrate addition measured after 2 hrs by fluorescence assay
recorded_metric: pIC50
pIC50 (log units): -log10 of the concentration in mol/L.

INPUT: pIC50 lookup needed for CCCNNC(=O)c1ccc(NC(=O)[C@H](Cc2c[nH]c3ccccc23)NC(=O)c2ccc(OC)cc2)cc1 , thanks.
OUTPUT: 6.20
